Listed next: entries and their corresponding IC50.
# Assay target: His-tagged KRAS G12D protein (Homo sapiens (Human), UniProt P01116, G12D)
# Sequence (P01116 other isoform, or with tags, fused parts or gaps G12D): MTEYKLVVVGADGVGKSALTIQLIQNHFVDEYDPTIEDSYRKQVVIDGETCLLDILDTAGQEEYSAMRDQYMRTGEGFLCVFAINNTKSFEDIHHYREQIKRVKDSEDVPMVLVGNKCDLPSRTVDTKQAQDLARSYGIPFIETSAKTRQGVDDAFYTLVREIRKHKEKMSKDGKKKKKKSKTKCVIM
# Protocol notes: KRAS G12D TR-FRET Assay
# Type: binding
# Study conditions: read-out: KRAS G12D Binding IC50
Assay metric: IC50 (nM)

• Cc1cc2[nH]ncc2c2c1CCCCC(=O)N1CC[C@@H]3CCN(C[C@@H]31)c1nc(OC[C@@]34CCCN3C[C@H](F)C4)nc3c(F)c-2ncc13 (mixture of isomers) = 9
• O=C1OCCCc2c(F)cc3[nH]ncc3c2-c2ncc3c(nc(OC[C@@]45CCCN4C[C@H](F)C5)nc3c2F)N2CCOC[C@H](C2)O1 = 3
• CN1C(=O)CCCCc2c(Cl)cc3[nH]ncc3c2-c2cc3nc(OC[C@@]45CCCN4C[C@H](F)C5)nc(c3nn2)N2CCC[C@@H]1C2 = 29
• O=C1OCCCc2c(Cl)cc3[nH]ncc3c2-c2ncc3c(nc(OC[C@@]45CCCN4C[C@H](F)C5)nc3c2F)N2CCC[C@H](C2)O1 = 3
• Cc1cc2[nH]ncc2c2c1CCCOC(=O)N[C@@]1(C)CCCCN(C1)c1nc(OC[C@@]34CCCN3C[C@H](F)C4)nc3c(F)c-2ncc13 = 50000
• Fc1c2ncc3c(nc(OC[C@@]45CCCN4C[C@H](F)C5)nc13)N1CCCC[C@H](C1)c1cnn(n1)CCCc1c(Cl)cc3[nH]ncc3c1-2 = 4

* * *

Listed next: entries and their corresponding IC50.
# Assay target: GDP-bound KRAS protein (aa 1-169), containing both G12D and C118A amino acid substitutions (Homo sapiens (Human), UniProt P01116, C118A/G12D)
# Sequence (P01116 other isoform, or with tags, fused parts or gaps G12D/C118A): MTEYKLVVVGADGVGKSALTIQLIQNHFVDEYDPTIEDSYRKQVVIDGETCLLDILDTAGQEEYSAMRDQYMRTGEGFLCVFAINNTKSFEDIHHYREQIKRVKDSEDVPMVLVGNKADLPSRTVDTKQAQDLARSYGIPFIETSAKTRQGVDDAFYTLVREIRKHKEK
# Protocol notes: KRAS G12D Coupled Nucleotide Exchange Assay
# Assay type: biochemical
# Study conditions: read-out: KRAS G12D Coupled Exchange IC50
Assay metric: IC50 (nM)

- Cc1cc2[nH]ncc2c2c1CCCCC(=O)N[C@]1(C)COCCN(C1)c1nc(OC[C@@]34CCCN3C[C@H](F)C4)nc3c(F)c-2ncc13 (mixture of isomers): 34
- Cc1cc2[nH]ncc2c2c1CCOC(=O)O[C@H]1C[C@]3(CCCN(C3)c3nc(OC[C@@]45CCCN4C[C@H](F)C5)nc4cc-2ncc34)C1: 2
- Cc1cc2[nH]ncc2c2c1CCCCC(=O)N1CC3(CCCN(C3)c3nc(OC[C@@]45CCCN4C[C@H](F)C5)nc4c(F)c-2ncc34)C1: 11
- O=C1CCCc2cccc3cc(O)cc(c23)-c2ncc3c(nc(OC[C@@]45CCCN4C[C@H](F)C5)nc3c2F)N2CCC[C@H](C2)N1 [Example 1, bis(2,2,2-trifluoroacetate)]: 4
- O=C1COCCc2c(Cl)cc3[nH]ncc3c2-c2ncc3c(nc(OC[C@@]45CCCN4C[C@H](F)C5)nc3c2F)N2CCCC[C@H](C2)N1: 2
- O=C1N[C@@H]2CCCCN(C2)c2nc(OC[C@@]34CCCN3C[C@H](F)C4)nc3c(F)c(ncc23)-c2c(c(Cl)cc3[nH]ncc23)CCCCO1: 5
- C[C@@H]1C[C@@H](COc2nc3c4cnc(c(F)c4n2)-c2c(c(Cl)cc4[nH]ncc24)CCCOC(=O)O[C@@H]2COCCN3C2)N(C)C1: 3
- CN(C)CC1(COc2nc3c4cnc(c(F)c4n2)-c2c(c(Cl)cc4[nH]ncc24)CCCCC(=O)N2CC[C@@H]4CCN3C[C@@H]42)CC1: 4
- O=C1COCCCc2c(Cl)cc3[nH]ncc3c2-c2ncc3c(nc(OC[C@@]45CCCN4C[C@H](F)C5)nc3c2F)N2CCCC[C@H](C2)N1: 3
- O=C1CCCCc2c(Cl)cc3[nH]ncc3c2-c2ncc3c(nc(OC[C@@]45CCCN4C[C@H](F)C5)nc3c2F)N2CC3CCN1C(C3)C2 (stereo partly drawn): 11
- Cc1c2ncc3c(nc(OCC45CCC(CC4)O5)nc13)N1CCC[C@](C)(C1)NC(=O)CCCc1c(F)ccc3cc(O)cc-2c13: 111
- Cc1cc2[nH]ncc2c2c1CCCCO[C@H](C)[C@H]1CN(CCO1)c1nc(OC[C@@]34CCCN3C[C@H](F)C4)nc3c(F)c-2ncc13: 1410
